Target: human NTCP (Homo sapiens, UniProt Q14973)
Sequence (Q14973 whole entry): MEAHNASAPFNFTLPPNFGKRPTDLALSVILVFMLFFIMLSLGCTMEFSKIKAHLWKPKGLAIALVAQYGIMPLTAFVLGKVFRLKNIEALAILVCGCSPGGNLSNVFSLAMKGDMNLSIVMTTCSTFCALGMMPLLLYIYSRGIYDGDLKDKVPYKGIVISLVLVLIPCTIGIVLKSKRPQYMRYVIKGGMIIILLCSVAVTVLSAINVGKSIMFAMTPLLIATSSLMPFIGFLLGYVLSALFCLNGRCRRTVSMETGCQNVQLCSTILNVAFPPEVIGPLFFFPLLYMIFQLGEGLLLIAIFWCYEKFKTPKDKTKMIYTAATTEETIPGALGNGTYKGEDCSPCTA
Experiment: Screening taurocholate uptake assay (96-well, [14C]taurocholate, 10 µM drug)
Settings: screen, 10 µM drug, taurocholate uptake
Where a name gives a salt, the structure may show the parent alone.
Attribute Measured: B-score functional assay
I only need the number, thanks.

[[record]]
compound = "CC(C)OC(=O)CCC/C=C\\C[C@@H]1[C@@H](CC[C@@H](O)CCc2ccccc2)[C@H](O)C[C@@H]1O [Latanoprost]"
attribute_measured = "B-score functional assay"
observed_measurement = -2.131

[[record]]
compound = "O=C(O)c1ccccc1OP(=O)(O)O [Fosfosal]"
attribute_measured = "B-score functional assay"
observed_measurement = -0.869

[[record]]
compound = "CC(C)(C)NC[C@H](O)COc1ccccc1C1CCCC1 [Penbutolol sulfate]"
attribute_measured = "B-score functional assay"
observed_measurement = 0.103

[[record]]
compound = "Cc1cnc(C(=O)NCCc2ccc(S(=O)(=O)NC(=O)NC3CCCCC3)cc2)cn1 [Glipizide]"
attribute_measured = "B-score functional assay"
observed_measurement = -1.639

[[record]]
compound = "C#C[C@]1(O)CC[C@H]2[C@@H]3CCC4=CC(=O)CCC4=C3C=C[C@@]21CC [Gestrinone]"
attribute_measured = "B-score functional assay"
observed_measurement = -0.358

[[record]]
compound = "C[C@H]1c2cccc(O)c2C(=O)C2=C(O)[C@]3(O)C(=O)C(C(N)=O)=C(O)[C@@H](N(C)C)[C@@H]3[C@@H](O)[C@@H]21 [Doxycycline hydrochloride]"
attribute_measured = "B-score functional assay"
observed_measurement = -0.015

[[record]]
compound = "C(#CCN1CCCC1)CN1CCCC1.Cl.Cl [Tremorine dihydrochloride]"
attribute_measured = "B-score functional assay"
observed_measurement = -2.034

[[record]]
compound = "CN1C(=O)CC(c2ccccc2)C1=O (stereo not shown) [Phensuximide]"
attribute_measured = "B-score functional assay"
observed_measurement = 0.043

[[record]]
compound = "CC(Cc1ccc(O)cc1)NCC(O)c1cc(O)cc(O)c1 (stereo not shown) [Fenoterol hydrobromide]"
attribute_measured = "B-score functional assay"
observed_measurement = 1.4

[[record]]
compound = "CC1CS(=O)(=O)CCN1/N=C/c1ccc([N+](=O)[O-])o1 (stereo not shown) [Nifurtimox]"
attribute_measured = "B-score functional assay"
observed_measurement = -0.767


Please fill in: B-score functional assay reported for CC(=O)N1CCN(c2ccc(OCC3COC(Cn4ccnc4)(c4ccc(Cl)cc4Cl)O3)cc2)CC1 (stereo not shown) [Ketoconazole] = 0.044

Field B-score functional assay (entry CC(=O)[C@H]1CC[C@H]2[C@@H]3C[C@H](C)C4=CC(=O)CC[C@]4(C)[C@H]3[C@@H](O)C[C@]12C [Medrysone] ) reads -0.706

So, CS(=O)(=O)Nc1ccc([N+](=O)[O-])cc1Oc1ccccc1 [Nimesulide] ? Its B-score functional assay was -1.398

# B-score functional assay (compound: CC(C)[C@H]1CC[C@H](C(=O)N[C@H](Cc2ccccc2)C(=O)O)CC1 [Nateglinide] ) is -1.02

Record CC(C(=O)O)c1ccc2c(c1)[nH]c1ccc(Cl)cc12 (stereo not shown) [Carprofen] , field B-score functional assay: -2.152

----------
Listed here: items and their measured Ranking score.
Molecular target: human NTCP (Homo sapiens)
Experiment: Screening taurocholate uptake assay (96-well, [14C]taurocholate, 10 µM drug)
Details: ranking score beside the functional and binding assay B-scores of the screen
Counter-ions that a name gives are not always drawn.
Just the number, please.

Look over these answered cases.
[[record]]
molecule = "CO[C@@]1(NC(=O)C2SC(=C(C(N)=O)C(=O)O)S2)C(=O)N2C(C(=O)O)=C(CSc3nnnn3C)CS[C@@H]21 (stereo partly drawn)"
attribute_measured = "Ranking score"
observed_measurement = 655.496

[[record]]
molecule = "CC(C)NCC(O)COc1cccc2[nH]ccc12 (stereo not drawn)"
attribute_measured = "Ranking score"
observed_measurement = 777.082

[[record]]
molecule = "O=C1c2cccc3c2[C@H](CCC3)CN1[C@@H]1CN2CCC1CC2 [Palonosetron hydrochloride]"
attribute_measured = "Ranking score"
observed_measurement = 833.96

[[record]]
molecule = "COc1ccc(C(=O)c2ccccc2)c(O)c1"
attribute_measured = "Ranking score"
observed_measurement = 706.929

[[record]]
molecule = "Cc1ccc(N(CC2=NCCN2)c2cccc(O)c2)cc1 [Phentolamine hydrochloride]"
attribute_measured = "Ranking score"
observed_measurement = 785.945


Documented Ranking score of COc1ccc2c(c1)N(C[C@H](C)CN(C)C)c1ccccc1S2.O=C(O)/C=C\C(=O)O [Methotrimeprazine maleat salt] : 734.211

Per the record, "CCn1cc(C(=O)O)c(=O)c2cnc(N3CCNCC3)nc21" has Ranking score of 736.261

The value of Ranking score measured for the molecule "CCCCOC(=O)c1ccc(O)cc1" turned out to be 668.543

molecule C=C[C@H]1CN2CC[C@H]1C[C@@H]2[C@@H](O)c1ccnc2ccc(OC)cc12.Cl.O [Quinidine hydrochloride monohydrate] , Ranking score observed: 834.825
